Biological target: full-length SHP2 (His6-tagged SHP2(2-527)) (Homo sapiens, UniProt Q06124)
Construct: His6-tagged SHP2(2-527); His6; made in house; host or cells: E. coli
Sequence (Q06124 2-527): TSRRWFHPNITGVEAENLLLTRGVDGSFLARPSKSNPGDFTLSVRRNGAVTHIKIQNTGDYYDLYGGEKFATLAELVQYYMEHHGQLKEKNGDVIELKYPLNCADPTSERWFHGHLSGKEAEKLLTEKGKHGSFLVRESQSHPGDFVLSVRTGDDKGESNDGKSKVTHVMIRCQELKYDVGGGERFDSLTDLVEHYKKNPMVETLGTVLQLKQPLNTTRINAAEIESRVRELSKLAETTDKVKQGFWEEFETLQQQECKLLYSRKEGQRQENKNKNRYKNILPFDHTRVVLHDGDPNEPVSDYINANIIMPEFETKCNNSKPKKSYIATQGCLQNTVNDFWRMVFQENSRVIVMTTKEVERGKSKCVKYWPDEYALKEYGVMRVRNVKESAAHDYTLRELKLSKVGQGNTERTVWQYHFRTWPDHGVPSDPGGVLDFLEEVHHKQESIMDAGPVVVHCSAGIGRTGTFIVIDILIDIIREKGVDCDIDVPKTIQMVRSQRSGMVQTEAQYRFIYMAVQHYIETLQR
Experiment: SHP2 Enzymatic Assay (fluorescence intensity kinetic assay, DiFMUP hydrolysis)
Format: biochemical
Conditions: full-length SHP2 with 1 μM activating peptide, 50 μM DiFMUP; single assay or mean of multiple assays; read-out: Biological Example 1 IC50
As shown below, each of these compounds has a reported pIC50 value.
The scale used: pIC50 is minus the common logarithm of the concentration in molar units.

| chemical string | number |
| --- | --- |
| Cc1ccc2c(n1)CC1(CCN(c3cnc4nc(Sc5ccnc(N)c5Cl)ccc4n3)CC1)[C@@H]2N | 7.40 |
| CC1(N)CCN(c2cnc3nc(Oc4cccc(Cl)c4Cl)ccc3n2)CC1 | 6.47 |
| CC1(N)CCN(c2cnc3nc(Sc4cccn5nccc45)ccc3n2)CC1 | 6.40 |

Per the record, Nc1nccc(Sc2ccc3nc(N4CCC5(CC4)Cc4ncccc4[C@H]5N)cnc3n2)c1Cl has pIC50 of 7.42

* * *

Biological target: full-length SHP2 (His6-tagged SHP2(2-527)) (Homo sapiens)
Construct: His6-tagged SHP2(2-527); His6; made in house; host or cells: E. coli
Assay: SHP2 Enzymatic Assay (fluorescence intensity kinetic assay, DiFMUP hydrolysis)
Format: biochemical
# key: entry, value: log10 of IC50
Form field - Quantity: IC50; Unit: nM; Scale: log10

// below: answered molecules
| molecule | experimental system | number |
| --- | --- | --- |
| CC1(N)CCN(c2cnc3nc(Sc4cccc(Cl)c4Cl)ccc3n2)CC1 | full-length SHP2 (His6-tagged SHP2(2-527)) (Homo sapiens) | 1.76 |
| C[C@@H]1OCC2(CCN(c3cnc4nc(Sc5ccnc(N6CC[C@H](CO)C6)c5Cl)ccc4n3)CC2)[C@@H]1N | full-length SHP2 (His6-tagged SHP2(2-527)) (Homo sapiens) | 2.10 |
| NCC1CC2CCCC(C1)N2c1cnc2nc(Sc3ccnc(N)c3Cl)ccc2n1 (stereo not shown) | full-length SHP2 (His6-tagged SHP2(2-527)) (Homo sapiens) | 1.75 |
| Nc1nccc(Sc2ccc3nc(N4CC[C@@H](N)[C@H](O)C4)cnc3n2)c1Cl | full-length SHP2 (His6-tagged SHP2(2-527)) (Homo sapiens) | 1.81 |
| C[C@@H]1OCC2(CCN(c3cnc4nc(Sc5c(Cl)cnc6[nH]ccc56)ccc4n3)CC2)[C@@H]1N | full-length SHP2 (His6-tagged SHP2(2-527)) (Homo sapiens) | 1.65 |

Please fill in: log10 of IC50 reported for C[C@@H]1OCC2(CCN(c3cnc4nc(Sc5ccnc(N6CCC(O)CC6)c5Cl)ccc4n3)CC2)[C@@H]1N = 2.52

Consider Cc1cccc2c1CC1(CCN(c3cnc4nc(Sc5ccnc(N)c5Cl)ccc4n3)CC1)[C@H]2N . Its measured log10 of IC50 is 1.73

// log10 of IC50 lookup, molecule = C[C@@H]1OCC2(CCN(c3cnc4nc(Sc5c(C(F)(F)F)cnc6[nH]ccc56)ccc4n3)CC2)[C@@H]1N , result: 2.14

Note to self: log10 of IC50 recorded for N[C@H]1C[C@@H]2CN(c3cnc4nc(Sc5cccc(Cl)c5Cl)ccc4n3)C[C@H]1O2 was 2.61

For record COCCNc1nccc(Sc2ccc3nc(N4CCC5(CC4)CO[C@@H](C)[C@H]5N)cnc3n2)c1Cl the listed log10 of IC50 is 2.43

Looking up Cc1nccc(Sc2ccc3nc(N4CCC(C)(N)CC4)cnc3n2)c1Cl , I see its log10 of IC50 listed as 1.69

Per the records, this molecule ( C[C@@H]1OCC2(CCN(c3cnc4nc(Sc5ccnc(Cl)c5Cl)ccc4n3)CC2)[C@@H]1N ) has log10 of IC50 equal to 2.34

The measured log10 of IC50 associated with CC1(CN)CCN(c2cnc3nc(-c4cccc(Cl)c4Cl)ccc3n2)CC1 reads 2.70

Sample COCCNc1nccc(Sc2ccc3nc(N4CCC(C)(N)CC4)cnc3n2)c1Cl ; log10 of IC50 observed: 2.38

Lookup result for CC1(N)CCN(c2cnc3nc(Sc4cccnc4N)ccc3n2)CC1 ; measured log10 of IC50: 3.67

Briefly, log10 of IC50 measured for C[C@@H]1OCC2(CCN(c3cnc4nc(N5CCCc6ncccc65)ccc4n3)CC2)[C@@H]1N : 3.61

* * *

Target: full-length SHP2 (His6-tagged SHP2(2-527)) (Homo sapiens, UniProt Q06124)
Construct: His6-tagged SHP2(2-527); His6; made in house; host or cells: E. coli
Assay: SHP2 Enzymatic Assay (fluorescence intensity kinetic assay, DiFMUP hydrolysis)
Format: biochemical
readout type: pIC50
Worth noting: pIC50 values are minus log10 of concentrations stated in mol/L.

Example results:
| compound | experimental system | pIC50 |
| --- | --- | --- |
| Nc1nccc(Sc2ccc3nc(N4CCC5(CC4)Cc4c(Cl)cccc4[C@@H]5N)cnc3n2)c1Cl | full-length SHP2 (His6-tagged SHP2(2-527)) (Homo sapiens, UniProt Q06124) | 7.02 |
| Nc1nccc(Sc2ccc3nc(N4CCC5NCC5C4)cnc3n2)c1Cl (centres unmarked) | full-length SHP2 (His6-tagged SHP2(2-527)) (Homo sapiens, UniProt Q06124) | 7.10 |
| Nc1nccc(Sc2ccc3nc(N4CCC5(CCN5)CC4)cnc3n2)c1Cl | full-length SHP2 (His6-tagged SHP2(2-527)) (Homo sapiens, UniProt Q06124) | 6.92 |
| C[C@@H]1OCC2(CCN(c3cnc4nc(Sc5ccnc6c5CCC6O)ccc4n3)CC2)[C@@H]1N (some centres unmarked) | full-length SHP2 (His6-tagged SHP2(2-527)) (Homo sapiens, UniProt Q06124) | 6.55 |

Now consider the entry below.
What the record says about Nc1nccc(Sc2ccc3nc(N4CCC(N)(Cc5ccccn5)CC4)cnc3n2)c1Cl : pIC50 is 6.56

* * *

Target: full-length SHP2 (His6-tagged SHP2(2-527)) (Homo sapiens)
Construct: His6-tagged SHP2(2-527); His6; made in house; host or cells: E. coli
Assay: SHP2 Enzymatic Assay (fluorescence intensity kinetic assay, DiFMUP hydrolysis)
Format: biochemical
Counter-ions that a name gives are not always drawn.
readout type: pIC50
Remember the convention: pIC50 equals -log10 of concentration in molar.

| compound | pIC50 |
| --- | --- |
| C[C@@H]1C[C@@H](N)CCN1c1cnc2nc(Sc3ccnc(N)c3Cl)ccc2n1 [Example 122, dihydrochloride] | 7.19 |
| C[C@@H]1OCC2(CCN(c3cnc4nc(N5CCCc6ccccc65)ccc4n3)CC2)[C@@H]1N | 7.10 |
| CN(C)C1(C)CCN(c2cnc3nc(-c4cccc(Cl)c4Cl)ccc3n2)CC1 | 6.24 |

Readout pIC50 for C[C@@H]1OCC2(CCN(c3cnc4nc(Sc5ccnc(N6CCCC6)c5Cl)ccc4n3)CC2)[C@@H]1N , test system full-length SHP2 (His6-tagged SHP2(2-527)) (Homo sapiens), was 7.00

Observed pIC50 on full-length SHP2 (His6-tagged SHP2(2-527)) (Homo sapiens), entry Nc1nccc(Sc2ccc3nc(N4CCC5(CC4)CNC5)cnc3n2)c1Cl , equals 7.22

* * *

Target: full-length SHP2 (His6-tagged SHP2(2-527)) (Homo sapiens, UniProt Q06124)
Construct: His6-tagged SHP2(2-527); His6; made in house; host or cells: E. coli
Assay: SHP2 Enzymatic Assay (fluorescence intensity kinetic assay, DiFMUP hydrolysis)
Assay type: biochemical
The recorded IC50 of each item maps onto one of these classes: low-valued: < 80 nM; mid-valued: ≥ 80 nM and < 200 nM; high-valued: ≥ 200 nM

Example entries begin here.
| compound | label class |
| --- | --- |
| C[C@@H]1OCC2(CCN(c3cnc4nc(N5CCNc6ccccc65)ccc4n3)CC2)[C@@H]1N | high-valued |
| C[C@@H]1OCC2(CCN(c3cnc4nc(Sc5ccnc(N6CC[C@@H](O)C6)c5Cl)ccc4n3)CC2)[C@@H]1N | mid-valued |
| C[C@@H]1OCC2(CCN(c3cnc4nc(Sc5ccnc(N6CCC[C@H]6CO)c5Cl)ccc4n3)CC2)[C@@H]1N | mid-valued |

Assign a category based on measured IC50 for Nc1nccc(Sc2ccc3nc(N4CCC[C@@H](N)CC4)cnc3n2)c1Cl and give only the class name.
low-valued

Kindly identify the class of NCC1CN(c2cnc3nc(Sc4ccnc(N)c4Cl)ccc3n2)CCO1 (stereo not drawn) .
mid-valued

Which category does the recorded IC50 put N#Cc1ccc2c(c1)[C@H](N)C1(CCN(c3cnc4nc(Sc5ccnc(N)c5Cl)ccc4n3)CC1)C2 in?
low-valued

* * *

Target: full-length SHP2 (His6-tagged SHP2(2-527)) (Homo sapiens)
Construct: His6-tagged SHP2(2-527); His6; made in house; host or cells: E. coli
Experiment: SHP2 Enzymatic Assay (fluorescence intensity kinetic assay, DiFMUP hydrolysis)
Type: biochemical
Catalogue of log10 of IC50 values
Short version: log10 scale, IC50, nM.

log10 of IC50 in this record for COc1nc(N)cc(Sc2ccc3nc(N4CCC5(CC4)Cc4ccccc4[C@H]5N)cnc3n2)c1Cl [Example 171] : 1.75

So for CC(C)(N)C1CCN(c2cnc3nc(Sc4cccc(Cl)c4Cl)ccc3n2)CC1 [Example 61] , the logged log10 of IC50 turned out to be 3.20

The recorded log10 of IC50 for entry CC1(N)CCCN(c2cnc3nc(Sc4ccnc(N)c4Cl)ccc3n2)CC1 (centres unmarked) [Example 73] equals 1.54

Lab book: log10 of IC50 of CNc1nccc(Sc2ccc3nc(N4CCC5(CC4)CO[C@@H](C)[C@H]5N)cnc3n2)c1Cl [Example 33] noted as 2.00

Recorded log10 of IC50 (compound NCC1CN(c2cnc3nc(-c4ccccc4)ccc3n2)CCO1 (centres unmarked) [Example 65] ): 3.76

The reported log10 of IC50 of the compound CNc1nccc(Sc2ccc3nc(N4CCC[C@@](C)(N)CC4)cnc3n2)c1Cl (single isomer, unassigned) [Example 148] was 1.97

The recorded log10 of IC50 for entry Cc1ccc(Sc2ccc3nc(N4CCC(C)(N)CC4)cnc3n2)c(Cl)n1 [Example 98] equals 2.23

Kindly note the recorded log10 of IC50 for CC1(N)CCN(c2cnc3nc(-c4ccnc(N5CCCC5)c4Cl)ccc3n2)CC1 [Example 19] , which is 3.23

The measurements presented in this section are drawn from patent US12187721B2.
